- testedTarget: GmolPBP2 mutant R109A (Grapholita molesta, UniProt A0A059VC28, R134A)
- Sequence (A0A059VC28 entry or part of it R134A): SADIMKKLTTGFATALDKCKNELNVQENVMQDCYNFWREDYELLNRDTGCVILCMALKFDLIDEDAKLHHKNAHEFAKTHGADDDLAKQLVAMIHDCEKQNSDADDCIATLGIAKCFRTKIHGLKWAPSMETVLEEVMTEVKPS
- testProtocol: Fluorescence competitive binding assay, GmolPBP2 mutant
quantityMeasured: pKi
A value of pKi is the negative decimal logarithm of a concentration given in moles per litre.

IN: Look up pKi of CCCCC/C=C\CCCCCCCOC(C)=O [Z8-14:Ac, (Z)-8-tetradecenyl acetate] and report it.
OUT: 6.18

====

- testedTarget: rGmolGOBP1 (Grapholita molesta, UniProt H9XTU5)
- Sequence (H9XTU5 entry or part of it): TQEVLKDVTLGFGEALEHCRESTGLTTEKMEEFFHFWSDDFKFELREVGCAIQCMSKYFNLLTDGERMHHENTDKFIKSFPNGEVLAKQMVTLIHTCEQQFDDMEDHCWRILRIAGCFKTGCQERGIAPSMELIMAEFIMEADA
- testProtocol: Fluorescence competitive binding assay with 1-NPN probe
- testContext: calculated from IC50 and Kd of 1-NPN; read-out: Ki
quantityMeasured: Ki

IN: Answer with Ki of CCCCC/C=C\CCCCCCCOC(C)=O [Z8-14:Ac, (Z)-8-tetradecenyl acetate] measured for rGmolGOBP1 (Grapholita molesta, UniProt H9XTU5).
OUT: > 14 µM

====

- testedTarget: rGmolGOBP1 (Grapholita molesta, UniProt H9XTU5)
quantityMeasured: pKd
A value of pKd is the negative decimal logarithm of a concentration given in moles per litre.

IN: Answer with pKd of c1ccc(Nc2cccc3ccccc23)cc1 [1−NPN, N-Phenyl-1-naphthylamine, reference compound] measured for rGmolGOBP1 (Grapholita molesta, UniProt H9XTU5).
OUT: 5.24

====

- testedTarget: rGmolPBP3 (Grapholita molesta, UniProt A0A059VBP3)
- Sequence (A0A059VBP3 entry or part of it): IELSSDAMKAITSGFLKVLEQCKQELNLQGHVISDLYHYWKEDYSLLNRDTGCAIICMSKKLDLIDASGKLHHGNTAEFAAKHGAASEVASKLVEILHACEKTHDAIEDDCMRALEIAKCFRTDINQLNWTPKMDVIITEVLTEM
quantityMeasured: pKi
A value of pKi is the negative decimal logarithm of a concentration given in moles per litre.

IN: Look up pKi of CCCCC/C=C\CCCCCCCOC(C)=O [Z8-14:Ac, (Z)-8-tetradecenyl acetate] and report it.
OUT: 5.59

====

- testedTarget: GmolPBP2 mutant L68A (Grapholita molesta, UniProt A0A059VC28, L93A)
- Sequence (A0A059VC28 entry or part of it L93A): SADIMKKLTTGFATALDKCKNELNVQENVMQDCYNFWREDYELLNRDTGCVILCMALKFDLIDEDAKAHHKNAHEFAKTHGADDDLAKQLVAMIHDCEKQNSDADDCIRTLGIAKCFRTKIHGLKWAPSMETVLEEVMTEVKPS
- testProtocol: Fluorescence competitive binding assay, GmolPBP2 mutant
quantityMeasured: Ki (nM)
Numeric answer only, unit nM assumed.

IN: Answer with Ki of CCCCC/C=C\CCCCCCCOC(C)=O [Z8-14:Ac, (Z)-8-tetradecenyl acetate] measured for GmolPBP2 mutant L68A (Grapholita molesta, UniProt A0A059VC28, L93A).
OUT: 589

====

- testedTarget: rGmolGOBP2 (Grapholita molesta)
- Sequence (H9XTU6 entry or part of it): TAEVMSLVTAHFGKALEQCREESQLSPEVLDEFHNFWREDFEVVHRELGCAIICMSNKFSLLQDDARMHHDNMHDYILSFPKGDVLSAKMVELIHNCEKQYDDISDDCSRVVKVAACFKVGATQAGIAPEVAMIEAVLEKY
quantityMeasured: Kd (µM)
Numeric answer only, unit µM assumed.

IN: Answer with Kd of c1ccc(Nc2cccc3ccccc23)cc1 [1−NPN, N-Phenyl-1-naphthylamine, reference compound] measured for rGmolGOBP2 (Grapholita molesta).
OUT: 4.32

====

- testedTarget: GmolPBP2 mutant L68A (Grapholita molesta, UniProt A0A059VC28, L93A)
- testProtocol: Fluorescence competitive binding assay, GmolPBP2 mutant
quantityMeasured: pIC50
A value of pIC50 is the negative decimal logarithm of a concentration given in moles per litre.

IN: Look up pIC50 of CCCCC/C=C\CCCCCCCOC(C)=O [Z8-14:Ac, (Z)-8-tetradecenyl acetate] and report it.
OUT: 5.95

====

- Test system: OFM male antennae
- testProtocol: Electroantennogram (EAG) analysis
- Set-up: species or system Grapholita molesta
- testContext: 20, 200 and 2000 μg doses

- compound: "CCC/C=C\\CCCCCCCCCOC(C)=O [Z10-14:Ac, (Z)-10-tetradecenyl acetate]"
  EAG response of OFM males: "moderate EAG response"
- compound: "CCC/C=C\\CCCCCCCOC(C)=O [Z8-12:Ac, (Z)-8-dodecenyl acetate]"
  EAG response of OFM males: "higher sensitivity"
- compound: "CCC/C=C/CCCCCCCOC(C)=O [E8-12:Ac, (E)-8-dodecenyl acetate]"
  EAG response of OFM males: "higher sensitivity"
- compound: "CCCCC/C=C\\CCCCCCCOC(C)=O [Z8-14:Ac, (Z)-8-tetradecenyl acetate]"
  EAG response of OFM males: "moderate EAG response"
